Below, each of the binders is paired with its reported koff value.
# targetOrSystem: T1, Recombinant MBP-mutCALR Type 1 fusion protein (human)
# T1 construct: custom made at Cepter; also called recombinant mutCALR protein
# measurementNotes: SPR, IgG captured, 1:1 fit, Exp. 2
Give the number; s⁻¹ is assumed, so skip it.

anti-mutCALR antibody clone 64 (antibody, human IgG1, lambda, N297A, V domains shown, human IgG1 N297A variant of clone 6) VH: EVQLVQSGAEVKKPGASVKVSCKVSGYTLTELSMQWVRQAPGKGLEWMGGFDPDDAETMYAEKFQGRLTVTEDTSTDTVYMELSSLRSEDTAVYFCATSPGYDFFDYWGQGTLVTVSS VL: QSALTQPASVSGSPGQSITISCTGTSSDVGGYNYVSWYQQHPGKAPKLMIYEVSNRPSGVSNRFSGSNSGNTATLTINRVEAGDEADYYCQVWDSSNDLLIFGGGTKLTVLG :: 0.00248

### Prompt Provide one value: measured koff of anti-mutCALR antibody clone 131 (antibody, human IgG1, lambda, N297A, V domains shown, human IgG1 N297A variant of clone 15) VH: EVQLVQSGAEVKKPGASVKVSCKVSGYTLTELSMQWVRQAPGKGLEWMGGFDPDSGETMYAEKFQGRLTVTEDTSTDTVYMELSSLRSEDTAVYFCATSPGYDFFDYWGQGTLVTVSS VL: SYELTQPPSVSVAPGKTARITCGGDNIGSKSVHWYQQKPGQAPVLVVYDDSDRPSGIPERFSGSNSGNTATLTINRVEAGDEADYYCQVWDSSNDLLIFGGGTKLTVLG
### Response 0.00481

### Prompt Give me measured koff, please, for this binder: anti-mutCALR antibody clone 77 (antibody, human IgG1, lambda, N297A, V domains shown, human IgG1 N297A variant of clone 6) VH: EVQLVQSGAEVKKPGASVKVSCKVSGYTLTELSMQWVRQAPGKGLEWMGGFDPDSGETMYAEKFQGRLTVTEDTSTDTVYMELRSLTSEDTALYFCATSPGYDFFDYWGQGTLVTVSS VL: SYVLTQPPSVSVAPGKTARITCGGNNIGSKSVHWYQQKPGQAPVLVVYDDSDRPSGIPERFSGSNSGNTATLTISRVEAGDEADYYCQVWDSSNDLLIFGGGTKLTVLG
### Response 0.0175
